# STUDY SYSTEM: T1, LNX2_2, Q8N448
# T1 sequence (Q8N448 334-432, limits assumed, looked up): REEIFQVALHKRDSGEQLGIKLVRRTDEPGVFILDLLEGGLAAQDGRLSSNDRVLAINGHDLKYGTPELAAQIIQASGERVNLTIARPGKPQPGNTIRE
# EXPERIMENT: holdup assay
# Parameters: key: below the threshold = too weak to quantify, mostly under pKd 3.1 to 4
# CONDITION INFO: plain residues with an end cap or a label only (N-terminal biotin on a linker: ado-ado)
OBSERVED PROPERTY: pKd

LPPPESESKV [KCNJ9, Q92806] = 3.52
LLQEEWETVM [PTH1R, Q03431] = below the threshold
LVEEEEPMNL [HDAC7, Q8WUI4] = below the threshold
